Entries annotated with measured Ratio
Target: Son of sevenless homolog 1 (Homo sapiens) (UniProt Q07889)
Sequence (whole entry): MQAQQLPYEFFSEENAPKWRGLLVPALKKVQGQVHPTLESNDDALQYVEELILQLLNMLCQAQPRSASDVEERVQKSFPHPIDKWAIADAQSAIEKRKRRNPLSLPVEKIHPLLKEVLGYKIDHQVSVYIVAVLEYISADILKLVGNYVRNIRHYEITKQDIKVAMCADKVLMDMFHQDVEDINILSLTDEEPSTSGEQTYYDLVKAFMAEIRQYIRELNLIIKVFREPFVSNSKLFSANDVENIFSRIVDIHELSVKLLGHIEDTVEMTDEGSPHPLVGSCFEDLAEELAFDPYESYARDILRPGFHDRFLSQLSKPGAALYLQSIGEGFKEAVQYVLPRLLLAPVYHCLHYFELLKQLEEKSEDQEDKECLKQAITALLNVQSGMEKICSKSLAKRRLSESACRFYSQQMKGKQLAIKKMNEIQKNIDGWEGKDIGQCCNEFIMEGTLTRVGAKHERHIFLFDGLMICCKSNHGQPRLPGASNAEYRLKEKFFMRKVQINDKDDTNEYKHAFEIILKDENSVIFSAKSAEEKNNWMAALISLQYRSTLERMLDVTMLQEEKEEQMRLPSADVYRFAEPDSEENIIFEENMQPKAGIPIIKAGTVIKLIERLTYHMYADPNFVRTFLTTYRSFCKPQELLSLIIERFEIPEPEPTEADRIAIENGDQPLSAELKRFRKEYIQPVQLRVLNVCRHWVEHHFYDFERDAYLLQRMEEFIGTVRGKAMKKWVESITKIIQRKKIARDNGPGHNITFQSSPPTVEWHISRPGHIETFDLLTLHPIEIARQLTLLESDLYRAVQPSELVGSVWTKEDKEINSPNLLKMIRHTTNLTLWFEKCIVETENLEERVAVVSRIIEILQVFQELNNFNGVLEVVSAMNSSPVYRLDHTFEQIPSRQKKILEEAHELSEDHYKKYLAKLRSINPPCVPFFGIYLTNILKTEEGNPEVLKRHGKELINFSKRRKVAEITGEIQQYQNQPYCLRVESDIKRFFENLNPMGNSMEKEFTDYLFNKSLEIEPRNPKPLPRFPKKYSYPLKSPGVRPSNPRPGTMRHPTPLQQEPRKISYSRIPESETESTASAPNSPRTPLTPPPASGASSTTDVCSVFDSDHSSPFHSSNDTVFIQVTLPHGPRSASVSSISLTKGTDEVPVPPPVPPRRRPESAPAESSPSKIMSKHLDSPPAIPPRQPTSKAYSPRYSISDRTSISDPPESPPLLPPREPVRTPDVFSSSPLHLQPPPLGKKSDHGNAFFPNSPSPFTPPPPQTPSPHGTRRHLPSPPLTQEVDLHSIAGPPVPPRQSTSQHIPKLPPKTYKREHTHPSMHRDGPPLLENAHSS
Assay: Co-operativity factor, ratio of Kd for binding affinity to GST-tagged human SOS1 (564 to 1049 reisudes) expressed in Escherichia coli BL21 (DE3) cells assessed as binary complex formation to Kd for binding affinity to GST-tagged human SOS1 (564 to 1049 residues) expressed in Escherichia coli BL21 (DE3) cells assessed as ternary complex formation in the presence of 6His tagged human VCB
measure: Ratio

query smiles	recorded result
COc1cc2nc(C)nc(N[C@H](C)c3cc(N)cc(C(F)(F)F)c3)c2cc1C1CCN(C(=O)CCCCCCC(=O)N[C@H](C(=O)N2C[C@H](O)C[C@H]2C(=O)N[C@@H](C)c2ccc(-c3scnc3C)cc2)C(C)(C)C)CC1	2.9
COc1cc2nc(C)nc(N[C@H](C)c3cc(N)cc(C(F)(F)F)c3)c2cc1C1CCN(C(=O)CCCOCC(=O)N[C@H](C(=O)N2C[C@H](O)C[C@H]2C(=O)N[C@@H](C)c2ccc(-c3scnc3C)cc2)C(C)(C)C)CC1	2.3
COc1cc2nc(C)nc(N[C@H](C)c3cc(N)cc(C(F)(F)F)c3)c2cc1C1CCN(C(=O)CCOCCC(=O)N[C@H](C(=O)N2C[C@H](O)C[C@H]2C(=O)N[C@@H](C)c2ccc(-c3scnc3C)cc2)C(C)(C)C)CC1	2.8
COc1cc2nc(C)nc(N[C@H](C)c3cc(N)cc(C(F)(F)F)c3)c2cc1C1CCN(C(=O)CCCCC(=O)N[C@H](C(=O)N2C[C@H](O)C[C@H]2C(=O)N[C@@H](C)c2ccc(-c3scnc3C)cc2)C(C)(C)C)CC1	2.8
COc1cc2nc(C)nc(N[C@H](C)c3cc(N)cc(C(F)(F)F)c3)c2cc1C1CCN(C(=O)COCCCC(=O)N[C@H](C(=O)N2C[C@H](O)C[C@H]2C(=O)N[C@@H](C)c2ccc(-c3scnc3C)cc2)C(C)(C)C)CC1	8.9
COc1cc2nc(C)nc(N[C@H](C)c3cc(N)cc(C(F)(F)F)c3)c2cc1C1CCN(CCCCCCC(=O)N[C@H](C(=O)N2C[C@H](O)C[C@H]2C(=O)N[C@@H](C)c2ccc(-c3scnc3C)cc2)C(C)(C)C)CC1	2.7

* * *

Target: von Hippel-Lindau disease tumor suppressor/Son of sevenless homolog 1 (Homo sapiens, UniProt P40337+Q07889, G12C)
Sequence (P40337 whole entry, looked up, stated change not applied, one chain of several): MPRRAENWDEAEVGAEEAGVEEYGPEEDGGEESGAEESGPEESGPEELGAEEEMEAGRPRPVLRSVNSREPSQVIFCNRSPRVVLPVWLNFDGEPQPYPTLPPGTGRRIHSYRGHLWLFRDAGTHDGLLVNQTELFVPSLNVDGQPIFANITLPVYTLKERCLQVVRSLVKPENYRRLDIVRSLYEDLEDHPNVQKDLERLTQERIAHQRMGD
Assay: PROTAC activity at VHL/SOS1 in human MIA PaCa-2 cells harboring KRAS G12C mutant assessed as induction of SOS1 degradation incubated for 24 hrs by Immunoblot analysis
Conditions: pooled result: one value given for 16 cell lines, strains, targets or settings
pEC50: −log10 of the molar value.
measure: pEC50

query smiles	recorded result
COc1cc2nc(C)nc(N[C@H](C)c3cc(N)cc(C(F)(F)F)c3)c2cc1C1CCN(C(=O)CCCCCC(=O)N[C@H](C(=O)N2C[C@H](O)C[C@H]2C(=O)N[C@@H](C)c2ccc(-c3scnc3C)cc2)C(C)(C)C)CC1	8.08

* * *

Entries and their Activity values follow.
Target: von Hippel-Lindau disease tumor suppressor/Son of sevenless homolog 1 (Homo sapiens) (UniProt Q07889+P40337)
Sequence (P40337 whole entry, looked up, one chain of several): as the sequence (P40337 whole entry, looked up, stated change not applied, one chain of several) above
Test: PROTAC activity at VHL/SOS1 in human NCI-H358 cells assessed as induction of SOS1 protein degradation at 0.1 uM incubated for 24 hrs by Immunoblot analysis relative to control
Format: cell-based

query smiles	units text	Activity
COc1cc2nc(C)nc(N[C@H](C)c3cc(N)cc(C(F)(F)F)c3)c2cc1C1CCN(C(=O)CCCCCCCC(=O)N[C@H](C(=O)N2C[C@H](O)C[C@H]2C(=O)N[C@@H](C)c2ccc(-c3scnc3C)cc2)C(C)(C)C)CC1	%	31.4
COc1cc2nc(C)nc(N[C@H](C)c3cc(N)cc(C(F)(F)F)c3)c2cc1C1CCN(C(=O)C2CCN(CCC(=O)N[C@H](C(=O)N3C[C@H](O)C[C@H]3C(=O)N[C@@H](C)c3ccc(-c4scnc4C)cc3)C(C)(C)C)CC2)CC1	%	21.7
COc1cc2nc(C)nc(N[C@H](C)c3cc(N)cc(C(F)(F)F)c3)c2cc1C1CCN(C(=O)C2CN(CCC(=O)N[C@H](C(=O)N3C[C@H](O)C[C@H]3C(=O)N[C@@H](C)c3ccc(-c4scnc4C)cc3)C(C)(C)C)C2)CC1	%	9.8
COc1cc2nc(C)nc(N[C@H](C)c3cc(N)cc(C(F)(F)F)c3)c2cc1C1CCN(C(=O)CCCC(=O)N[C@H](C(=O)N2C[C@H](O)C[C@H]2C(=O)N[C@@H](C)c2ccc(-c3scnc3C)cc2)C(C)(C)C)CC1	%	9.28
COc1cc2nc(C)nc(N[C@H](C)c3cc(N)cc(C(F)(F)F)c3)c2cc1C1CCN(C(=O)CCCCCCC(=O)N[C@H](C(=O)N2C[C@H](O)C[C@H]2C(=O)N[C@@H](C)c2ccc(-c3scnc3C)cc2)C(C)(C)C)CC1	%	25.2
COc1cc2nc(C)nc(N[C@H](C)c3cc(N)cc(C(F)(F)F)c3)c2cc1C1CCN(C(=O)[C@H]2CC[C@H](C(=O)N[C@H](C(=O)N3C[C@H](O)C[C@H]3C(=O)N[C@@H](C)c3ccc(-c4scnc4C)cc3)C(C)(C)C)CC2)CC1	%	3.24
COc1cc2nc(C)nc(N[C@H](C)c3cc(N)cc(C(F)(F)F)c3)c2cc1C1CCN(C(=O)CCCCCC(=O)N[C@H](C(=O)N2C[C@H](O)C[C@H]2C(=O)N[C@@H](C)c2ccc(-c3scnc3C)cc2)C(C)(C)C)CC1	%	83.9
COc1cc2nc(C)nc(N[C@H](C)c3cc(N)cc(C(F)(F)F)c3)c2cc1C1CCN(C(=O)CCCCC(=O)N[C@H](C(=O)N2C[C@H](O)C[C@H]2C(=O)N[C@@H](C)c2ccc(-c3scnc3C)cc2)C(C)(C)C)CC1	%	16.4
COc1cc2nc(C)nc(N[C@H](C)c3cc(N)cc(C(F)(F)F)c3)c2cc1C1CCN(C(=O)COCCOCC(=O)N[C@H](C(=O)N2C[C@H](O)C[C@H]2C(=O)N[C@@H](C)c2ccc(-c3scnc3C)cc2)C(C)(C)C)CC1	%	19.6
COc1cc2nc(C)nc(N[C@H](C)c3cc(N)cc(C(F)(F)F)c3)c2cc1C1CCN(CCCCCCCC(=O)N[C@H](C(=O)N2C[C@H](O)C[C@H]2C(=O)N[C@@H](C)c2ccc(-c3scnc3C)cc2)C(C)(C)C)CC1	%	9.25
COc1cc2nc(C)nc(N[C@H](C)c3cc(N)cc(C(F)(F)F)c3)c2cc1C1CCN(C(=O)COCCCC(=O)N[C@H](C(=O)N2C[C@H](O)C[C@H]2C(=O)N[C@@H](C)c2ccc(-c3scnc3C)cc2)C(C)(C)C)CC1	%	54.6
COc1cc2nc(C)nc(N[C@H](C)c3cc(N)cc(C(F)(F)F)c3)c2cc1C1CCN(C(=O)CCCOCC(=O)N[C@H](C(=O)N2C[C@H](O)C[C@H]2C(=O)N[C@@H](C)c2ccc(-c3scnc3C)cc2)C(C)(C)C)CC1	%	1.36
COc1cc2nc(C)nc(N[C@H](C)c3cc(N)cc(C(F)(F)F)c3)c2cc1C1CCN(C(=O)CCOCCC(=O)N[C@H](C(=O)N2C[C@H](O)C[C@H]2C(=O)N[C@@H](C)c2ccc(-c3scnc3C)cc2)C(C)(C)C)CC1	%	0
COc1cc2nc(C)nc(N[C@H](C)c3cc(N)cc(C(F)(F)F)c3)c2cc1C1CCN(C(=O)CCCCCCCCC(=O)N[C@H](C(=O)N2C[C@H](O)C[C@H]2C(=O)N[C@@H](C)c2ccc(-c3scnc3C)cc2)C(C)(C)C)CC1	%	0
COc1cc2nc(C)nc(N[C@H](C)c3cc(N)cc(C(F)(F)F)c3)c2cc1C1CCN(CCCCCCC(=O)N[C@H](C(=O)N2C[C@H](O)C[C@H]2C(=O)N[C@@H](C)c2ccc(-c3scnc3C)cc2)C(C)(C)C)CC1	%	9.77
COc1cc2nc(C)nc(N[C@H](C)c3cc(N)cc(C(F)(F)F)c3)c2cc1C1CCN(C(=O)CCCCCCCCCC(=O)N[C@H](C(=O)N2C[C@H](O)C[C@H]2C(=O)N[C@@H](C)c2ccc(-c3scnc3C)cc2)C(C)(C)C)CC1	%	9.65
COc1cc2nc(C)nc(N[C@H](C)c3cc(N)cc(C(F)(F)F)c3)c2cc1C1CCN(CCCCCC(=O)N[C@H](C(=O)N2C[C@H](O)C[C@H]2C(=O)N[C@@H](C)c2ccc(-c3scnc3C)cc2)C(C)(C)C)CC1	%	3.04
